experiment: Toxicity liver stage against HepG2, at 10uM; assay type: cell-based; parameters: test concentration 10 uM, cell line HepG2-A16-CD81EGFP; details: human, HepG2-A16-CD81EGFP cells; read-out: INHIBITION
measurement.kind: cytotoxicity at 10 µM (%)
Quick reminder: number only, in %, skip the unit.

molecule	cytotoxicity at 10 µM (%)
CS(=O)(=O)NC1CCCN(Cc2ccc(OCc3ccccn3)cc2)C1 (centres undefined)	1.8
CSCc1noc(-c2ccc(C)c(N3CCNC3=O)c2)n1	-8.77
CC(C)(C)c1nnc(CN2CCC(c3cc4ccccc4[nH]3)CC2)o1	24.3
COCCCN(CCOC)Cc1nc2c(cnn2C)c(=O)[nH]1	-5.72
Cc1cc(CNC(=O)C2CCCN2C(=O)OC(C)(C)C)no1 (centres undefined)	-4.12
Cc1ccc(CN2CCN(C(=O)C3CCC3)[C@@H]3CS(=O)(=O)C[C@@H]32)cc1C	2.09
CCCn1cc(NC(=O)c2cccc(CN3CC[C@H](O)C3)c2)nn1	-12.2
Cc1nc(CN2CCN(C(=O)C(C(C)C)n3cncn3)CC2)cs1 (centres undefined)	-1.29

Ask: Could you share which cytotoxicity at 10 µM value was measured for Cc1nn(C)cc1-c1cc(C(=O)N2CCc3ncc(Cl)cc3C2)on1 ?
Reply: -4.96

Ask: Reported cytotoxicity at 10 µM for CC(C)c1nc(C2CCCN(C(=O)CS(=O)(=O)C(C)C)C2)no1 (centres undefined) : what is it?
Reply: 8.75

Ask: Could you tell me which cytotoxicity at 10 µM is on file for Cc1cnn(CCNCc2nccn2CC(F)(F)F)c1 ?
Reply: 6.51

Ask: Name the reported cytotoxicity at 10 µM value associated with the molecule CCc1c(C(=O)O)nnn1-c1ccc(C)cc1C
Reply: -5.11

Ask: Fill in the blank: the reported cytotoxicity at 10 µM of N#CCCn1nc(C(F)(F)F)c2c1CCC2 is ____.
Reply: -12

Ask: # cytotoxicity at 10 µM lookup, item CSCC(CCO)NC(=O)Nc1cccc(Br)c1C (centres undefined)
Reply: -3.7

Ask: Name the recorded cytotoxicity at 10 µM for CC(Cn1cnc2cn(C)nc2c1=O)Oc1cccnc1 (centres undefined) .
Reply: -11.7

Ask: What value of cytotoxicity at 10 µM has been reported for the following molecule? O=C(O)COCC(=O)NC1CC2(CCCCC2)Oc2ccccc21 (centres undefined)
Reply: -28.5

Ask: For the molecule NCC1CCC2(CCN(C(=O)c3ccccn3)CC2)CO1 (centres undefined) , what cytotoxicity at 10 µM is on record?
Reply: -111

Ask: Name the recorded cytotoxicity at 10 µM for CN(C)C(CNC(=O)OCC(F)(F)F)c1ccsc1 (centres undefined) .
Reply: -44.4

Ask: Form field: reported cytotoxicity at 10 µM of COCCCC(=O)N1CCC(Nc2cccnn2)CC1
Reply: -3.69

Ask: Any idea what its cytotoxicity at 10 µM is? The molecule is CC(C)c1cc(NC(=O)Cn2cnc3ccccc3c2=O)[nH]n1
Reply: -168

Ask: // cytotoxicity at 10 µM lookup, key: CS(=O)(=O)N1CCOCC2(CCN(C(=O)c3cccnc3)CC2)C1
Reply: -10.1

Ask: Look up cytotoxicity at 10 µM: Cc1n[nH]c(C2CN(Cc3ncc(C(C)C)o3)CCO2)n1 (centres undefined)
Reply: -6.32

Ask: Sample C[C@H]1CN(C(=O)c2ccoc2)C[C@@]12CCN(CCN(C)C)C2=O — what was its cytotoxicity at 10 µM?
Reply: -1.77

Ask: Item O=c1ccc(-c2cccs2)nn1CN1CCOC(c2ccccc2)C1 (centres undefined) has what recorded cytotoxicity at 10 µM?
Reply: 7.57

---

assay: Toxicity liver stage against HepG2, at 10uM; format: cell-based; design: test concentration 10 uM, cell line HepG2-A16-CD81EGFP; conditions: human, HepG2-A16-CD81EGFP cells; read-out: INHIBITION
Recorded cytotoxicity at 10 µM, one value per entry.
All answers are understood in %, so give the number only.

Reference set (2 entries):
compound	measurement.kind	experimental.result
CC(C)c1nc(C(=O)N2CCCC(N)CC2)cs1 (stereo unspecified)	cytotoxicity at 10 µM	-2.56
Cc1ccc2c(ccn2CCC(=O)NC[C@@H]2CCCN3CCCC[C@H]23)c1	cytotoxicity at 10 µM	2.29

Ask: Given the compound OCCc1cc(CC2(NCc3ccc(C(F)(F)F)cc3)COC2)no1 , what is its reported cytotoxicity at 10 µM?
Reply: -4.41

Ask: // lookup cytotoxicity at 10 µM for CN1CCCc2cc(CNC(=O)c3cc[n+]([O-])cc3)ccc21
Reply: -1.11

Ask: Find the recorded cytotoxicity at 10 µM belonging to CCCNC(=O)CCNC(=O)c1ccccc1N1CCOCC1 and report it.
Reply: 0.321

Ask: Quick one: cytotoxicity at 10 µM of Cc1n[nH]c2c1C(c1ccc(Cl)cc1)SCC(=O)N2 (stereo unspecified) ?
Reply: 19.2

---

experiment: Toxicity liver stage against HepG2, at 10uM; format: cell-based; design: test concentration 10 uM, cell line HepG2-A16-CD81EGFP; conditions: human, HepG2-A16-CD81EGFP cells; read-out: INHIBITION
Reported cytotoxicity at 10 µM values for a set of compounds
Give the number; % is assumed, so skip it.

Ask: Item O=C(CN1C[C@@H]2CC[C@H]1CN(Cc1ccccn1)C2)NCc1cccs1 has what recorded cytotoxicity at 10 µM?
Reply: -24.2

---

Readings of cytotoxicity at 10 µM for the listed compounds
assay: Toxicity liver stage against HepG2, at 10uM; type: cell-based; parameters: test concentration 10 uM, cell line HepG2-A16-CD81EGFP; details: human, HepG2-A16-CD81EGFP cells; read-out: INHIBITION
Just the number please, in %, no unit attached.

compound	cytotoxicity at 10 µM, %
O=C(c1ccc2c(c1)OCO2)N1CCC(Nc2cccnn2)CC1	-15.6
CC(C)(C)c1coc([C@@H]2COCCN2Cc2cnc3ccccc3c2)n1	10.9
CC(CNC(=O)c1cnc[nH]1)Oc1ccccc1Br (configuration not stated)	2.74
COc1cc(NCCCSc2nnc(C)s2)ncn1	20.6
CN1CC(=O)N(C2CCNCC2)Cc2c(NC3CCC3)ncnc21	3.9
Cn1nnc2c(N3CC(C(=O)NCCC4=CCCCC4)C3)ncnc21	8.41

Ask: # query: cytotoxicity at 10 µM of entry CCOC(=O)c1n[nH]cc1-c1cncn1CCn1nc(C)c(C)c1C
Reply: -35.3

Ask: Please look up its cytotoxicity at 10 µM: CCN1C(=O)CC[C@@H]2[C@H]1CCN2C(=O)Cc1cccc(OC)c1
Reply: 0.657

Ask: Please look up its cytotoxicity at 10 µM: CC(C)CN1CCCn2nc(CNC(=O)CCCc3cn[nH]c3)cc2C1
Reply: -6.36

Ask: Which cytotoxicity at 10 µM is listed for COCC(=O)N1CC[C@]2(O)CCN(Cc3cccnc3OC)C[C@@H]2C1 ?
Reply: 8.72

Ask: Request the reported cytotoxicity at 10 µM associated with CC(NC(=O)NCCCn1cccn1)c1ccc2c(c1)OCCCO2 (configuration not stated)
Reply: -9.13

Ask: cytotoxicity at 10 µM for Cc1ccc(CNC2CCN(CCc3ccncc3)CC2)s1 ?
Reply: -13.9

Ask: Consider the compound CCC(=O)NCC(=O)Nc1c(C)cnn1Cc1cc(F)ccc1F and give its measured cytotoxicity at 10 µM.
Reply: -2.59

Ask: What does the data say about its cytotoxicity at 10 µM? Entry: CCCNC(=O)Cc1c(C)nc2c(c1C)c(=O)[nH]n2C
Reply: 11.4

Ask: Reported cytotoxicity at 10 µM for Cc1nnc(C2Cc3ccccc3CN2Cc2c(C)noc2C)o1 (configuration not stated) : what is it?
Reply: -13.7

Ask: Request the reported cytotoxicity at 10 µM associated with Cc1nccn1C1CCCN(C(=O)CCCNc2ncccn2)C1 (configuration not stated)
Reply: -6.42

Ask: Entry under review: CC(C)C(C)N(C)Cc1nnc(-c2ccc(Br)s2)o1 (configuration not stated) . Reported cytotoxicity at 10 µM?
Reply: -1.65

Ask: So what does the record say about cytotoxicity at 10 µM for CCn1c(Cn2cncn2)nnc1C1CCN(Cc2ccccn2)CC1 ?
Reply: 9.78

Ask: What measured cytotoxicity at 10 µM goes with Cn1c(CCNC(=O)CC[C@@H]2CCCN3CCCC[C@H]23)n[nH]c1=O ?
Reply: 4.13

Ask: Look up cytotoxicity at 10 µM: O=C(CCN1CCCC(CO)(CC2CC2)C1)NCc1cccc(Cl)c1 (configuration not stated)
Reply: -1.07

Ask: Which cytotoxicity at 10 µM is reported for this compound? CC(=O)N1N=C(Cc2ccccc2)OC1C(=O)NCC(=O)OC(C)(C)C (configuration not stated)
Reply: 0.15

Ask: // lookup cytotoxicity at 10 µM for O=C(CCOCC(F)(F)F)NS(=O)(=O)c1cccnc1
Reply: 0.946

Ask: cytotoxicity at 10 µM lookup needed for O=C(C[S+]([O-])Cc1csc(C2CCCC2)n1)Nc1ccccc1 (configuration not stated) , thanks.
Reply: -42.3

Ask: Would you mind telling me what cytotoxicity at 10 µM value was observed for CCOCC1CN(Cc2cccnc2OC)Cc2cnn(C)c21 (configuration not stated) ?
Reply: -1.6

Ask: Which measured cytotoxicity at 10 µM value corresponds to O=C(Cc1ccc(F)cc1)NCCNS(=O)(=O)C1CCCC1 ?
Reply: 9.31

Ask: # query: cytotoxicity at 10 µM of entry CCN(CC)C(=O)CN(C)C(=O)c1ccc(-c2ccsc2)nc1C
Reply: 18.1

Ask: For the compound Cc1ccc(NC(=O)N2CCN(C(=O)CC3CCCC3)CC2)s1 , what cytotoxicity at 10 µM is on record?
Reply: 4.36
